biological target: recombinant his-tagged homotrimeric SARS-CoV-2 spike protein (SARS-CoV-2, UniProt P0DTC2 16-1211); assay: flow cytometry, blocking of binding to hACE-2 cells
For each of the binders below, state its percent blocking.
Answers are plain numbers, in %.

Example results:
>  <binder>
1035762 (antibody, V domains shown) VH: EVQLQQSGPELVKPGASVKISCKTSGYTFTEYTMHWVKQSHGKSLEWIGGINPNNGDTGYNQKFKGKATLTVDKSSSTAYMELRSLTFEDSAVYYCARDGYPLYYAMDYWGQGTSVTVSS VL: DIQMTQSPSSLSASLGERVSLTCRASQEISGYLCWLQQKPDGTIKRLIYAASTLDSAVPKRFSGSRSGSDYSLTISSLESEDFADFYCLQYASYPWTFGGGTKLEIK

>  <percent blocking [%]>
93

$$$$
>  <binder>
1035419 (antibody, V domains shown) VH: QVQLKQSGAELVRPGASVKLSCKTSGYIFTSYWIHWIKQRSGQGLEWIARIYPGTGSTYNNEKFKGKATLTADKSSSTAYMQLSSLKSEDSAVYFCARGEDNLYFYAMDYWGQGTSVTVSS VL: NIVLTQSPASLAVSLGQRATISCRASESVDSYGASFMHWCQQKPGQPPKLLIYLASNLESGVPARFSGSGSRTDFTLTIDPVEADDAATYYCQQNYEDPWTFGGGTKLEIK

>  <percent blocking [%]>
89

$$$$

input: Note down percent blocking recorded for 1035240 (antibody, V domains shown) VH: QVQLQQSGAELARPGASVKMSCKASGYTFTTYTMHWVKQRPGQGLEWIGYINPSSGYTNYNQKFKDKATLTADTSSSTAYMQLSSLTSEDSAVYYCARRNPLYAMDYWGQGTSVTVSS VL: DIKMTQSPSSMYASLGERVTITCKASQDINSYLNWFQQKPGKSPKTLIYRANRLVDGVPSRFSGSGSGQDYSLTISSLEYEDMGIYYCLQYDEFPYTFGGGTKLEIK
output: 96.1

Origin of the recorded values: patent US20230408517A1
